B1: Azoarcus group I ribozyme (parent)
chain: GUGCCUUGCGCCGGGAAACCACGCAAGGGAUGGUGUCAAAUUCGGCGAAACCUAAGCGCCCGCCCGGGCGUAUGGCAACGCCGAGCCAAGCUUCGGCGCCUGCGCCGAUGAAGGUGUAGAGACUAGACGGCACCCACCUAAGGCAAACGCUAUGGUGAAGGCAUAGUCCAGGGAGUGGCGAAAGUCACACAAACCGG

- Variants of: B1
- PROCEDURE_TEXT: reverse-splicing fitness (ratio to wild type); higher = more active; in vitro selection; Mg2+ level not given

>  <VARIANT_LABEL>
C82U A111C A120G C169G U176A

>  <reverse-splicing fitness>
0.0161

$$$$
>  <VARIANT_LABEL>
C82G C150G C169U U176A

>  <reverse-splicing fitness>
0.00858

$$$$
>  <VARIANT_LABEL>
A111C A120U A145U C169U U176G

>  <reverse-splicing fitness>
0.00286

$$$$
>  <VARIANT_LABEL>
C82U A111C A120C C150U

>  <reverse-splicing fitness>
0.0192

$$$$
>  <VARIANT_LABEL>
C82U A111G A120G A145G C150A C169G U176A

>  <reverse-splicing fitness>
0.0174

$$$$
>  <VARIANT_LABEL>
C82G A111G A120U A145C C150A C169A U176A

>  <reverse-splicing fitness>
0.00209

$$$$
>  <VARIANT_LABEL>
C82U A120U A145C C150G U176A

>  <reverse-splicing fitness>
0.0055

$$$$
>  <VARIANT_LABEL>
A120G U176C

>  <reverse-splicing fitness>
0.222

$$$$
>  <VARIANT_LABEL>
C82U A111U A120C A145C C150U C169U U176G

>  <reverse-splicing fitness>
0.00464

$$$$
>  <VARIANT_LABEL>
C82G A111G A145C C150G C169A U176A

>  <reverse-splicing fitness>
0.00983

$$$$
>  <VARIANT_LABEL>
C82A A111U A145G C150G C169G

>  <reverse-splicing fitness>
0.00774

$$$$
>  <VARIANT_LABEL>
C82G A111C A145U C150U

>  <reverse-splicing fitness>
0.172

$$$$
>  <VARIANT_LABEL>
C82U A111U A145G C150G C169A U176C

>  <reverse-splicing fitness>
0.0112

$$$$
>  <VARIANT_LABEL>
C82U A111G A120G A145C C169A

>  <reverse-splicing fitness>
0.00792

$$$$
>  <VARIANT_LABEL>
A120C A145G C150G C169G U176C

>  <reverse-splicing fitness>
0.0135

$$$$
>  <VARIANT_LABEL>
A111C A120C A145U C150G

>  <reverse-splicing fitness>
0.0621

$$$$
>  <VARIANT_LABEL>
C82A A120C A145C C150U C169A U176G

>  <reverse-splicing fitness>
0.00541

$$$$
>  <VARIANT_LABEL>
C82U A111C A145C C150A C169A U176C

>  <reverse-splicing fitness>
0.00874

$$$$
>  <VARIANT_LABEL>
C82A A111U A145G C150U C169U U176A

>  <reverse-splicing fitness>
0.0147

$$$$
>  <VARIANT_LABEL>
C82A A111U A120C A145U C150G C169A

>  <reverse-splicing fitness>
0.00962

$$$$
>  <VARIANT_LABEL>
C82A A111C A120C A145C C150U C169A U176C

>  <reverse-splicing fitness>
0.0112

$$$$
>  <VARIANT_LABEL>
C82A A111G A120U U176G

>  <reverse-splicing fitness>
0.00504

$$$$
>  <VARIANT_LABEL>
C82G A111G A120C A145U C150U C169G U176G

>  <reverse-splicing fitness>
0.00596

$$$$
>  <VARIANT_LABEL>
A111C A120U C150G C169A U176A

>  <reverse-splicing fitness>
0.00683

$$$$
>  <VARIANT_LABEL>
C82G A111C A120U A145U C150A C169G

>  <reverse-splicing fitness>
0.00295

$$$$
>  <VARIANT_LABEL>
A111U A120C A145G C169A U176G

>  <reverse-splicing fitness>
0.0041

$$$$
>  <VARIANT_LABEL>
C82U A111G C150A C169G U176A

>  <reverse-splicing fitness>
0.0207

$$$$
>  <VARIANT_LABEL>
A111U A120C C169A U176C

>  <reverse-splicing fitness>
0.017

$$$$
>  <VARIANT_LABEL>
C82U A120U C150U U176A

>  <reverse-splicing fitness>
0.0245

$$$$
>  <VARIANT_LABEL>
C82A A111U A120C A145G C150A C169G U176G

>  <reverse-splicing fitness>
0.00858

$$$$
>  <VARIANT_LABEL>
C82U A111U A145G C150G C169A

>  <reverse-splicing fitness>
0.00815

$$$$
>  <VARIANT_LABEL>
A120G A145U C150G U176C

>  <reverse-splicing fitness>
0.0502

$$$$
>  <VARIANT_LABEL>
A111U A120G A145G C150G C169G U176C

>  <reverse-splicing fitness>
0.0108

$$$$
>  <VARIANT_LABEL>
C82U A111G A120U A145U C150G C169A U176G

>  <reverse-splicing fitness>
0.00207

$$$$
>  <VARIANT_LABEL>
A120U A145C C150U C169G U176G

>  <reverse-splicing fitness>
0.00233

$$$$
>  <VARIANT_LABEL>
A111U A120C A145C C150G C169A U176A

>  <reverse-splicing fitness>
0.00803

$$$$
>  <VARIANT_LABEL>
C82U A111C A120C C169A U176A

>  <reverse-splicing fitness>
0.016

$$$$
>  <VARIANT_LABEL>
A111G A120G A145U C150A U176G

>  <reverse-splicing fitness>
0.00541

$$$$
>  <VARIANT_LABEL>
C82U A111U A120G A145C

>  <reverse-splicing fitness>
0.0134

$$$$
>  <VARIANT_LABEL>
C82G A111C A120U A145C C150U C169A

>  <reverse-splicing fitness>
0.00304

$$$$
>  <VARIANT_LABEL>
A111U A145G C150G C169U U176C

>  <reverse-splicing fitness>
0.0136

$$$$
>  <VARIANT_LABEL>
C82G A111G A120G A145C C150U C169U U176C

>  <reverse-splicing fitness>
0.0151

$$$$
>  <VARIANT_LABEL>
C82U A111C A120C A145C C150A C169U U176G

>  <reverse-splicing fitness>
0.00596

$$$$
>  <VARIANT_LABEL>
C82U A111C A145U C150A C169U

>  <reverse-splicing fitness>
0.0103

$$$$
>  <VARIANT_LABEL>
C82U A111G U176C

>  <reverse-splicing fitness>
0.274

$$$$
>  <VARIANT_LABEL>
A111G A120U A145C C150A C169A U176G

>  <reverse-splicing fitness>
0.00177

$$$$
>  <VARIANT_LABEL>
C82G A111C A145G C169A

>  <reverse-splicing fitness>
0.0104

$$$$
>  <VARIANT_LABEL>
A111C A120C A145G C169A U176G

>  <reverse-splicing fitness>
0.0054

$$$$
>  <VARIANT_LABEL>
A111G A120C A145C C150U C169A U176A

>  <reverse-splicing fitness>
0.00824

$$$$
>  <VARIANT_LABEL>
C82A A111G C150A C169A U176A

>  <reverse-splicing fitness>
0.0203

$$$$
>  <VARIANT_LABEL>
C82G A120C A145C C150U U176A

>  <reverse-splicing fitness>
0.0221

$$$$
>  <VARIANT_LABEL>
C82A A120G A145G C150G C169G U176A

>  <reverse-splicing fitness>
0.0097

$$$$
>  <VARIANT_LABEL>
C82U A111G A145C C150G C169U

>  <reverse-splicing fitness>
0.00804

$$$$
>  <VARIANT_LABEL>
C82G A120G A145U C150A C169U U176G

>  <reverse-splicing fitness>
0.00418

$$$$
>  <VARIANT_LABEL>
C82A A111G C150A C169A

>  <reverse-splicing fitness>
0.0109

$$$$
>  <VARIANT_LABEL>
A145U C150U C169A U176C

>  <reverse-splicing fitness>
0.04

$$$$
>  <VARIANT_LABEL>
C82U A111U A120G C150G C169G U176C

>  <reverse-splicing fitness>
0.00449

$$$$
>  <VARIANT_LABEL>
C82G A111G A120U A145C C150A C169G U176G

>  <reverse-splicing fitness>
0.0019

$$$$
>  <VARIANT_LABEL>
A111G A120C A145G C150G C169G U176G

>  <reverse-splicing fitness>
0.00503

$$$$
>  <VARIANT_LABEL>
A111G A120C A145U C169U U176A

>  <reverse-splicing fitness>
0.0589

$$$$
>  <VARIANT_LABEL>
C82A A111U A120U

>  <reverse-splicing fitness>
0.0228

$$$$
>  <VARIANT_LABEL>
C82G A111U A120C C169U U176G

>  <reverse-splicing fitness>
0.00561

$$$$
>  <VARIANT_LABEL>
C82U A120C C150G C169U U176C

>  <reverse-splicing fitness>
0.0136

$$$$
>  <VARIANT_LABEL>
C82G A120U A145U C169A U176G

>  <reverse-splicing fitness>
0.0013

$$$$
>  <VARIANT_LABEL>
C82A A111C A120G A145G C169U U176G

>  <reverse-splicing fitness>
0.00473

$$$$
>  <VARIANT_LABEL>
C82A C150G C169U

>  <reverse-splicing fitness>
0.00995

$$$$
>  <VARIANT_LABEL>
C82A A111U A120G A145C C150A C169G U176G

>  <reverse-splicing fitness>
0.00564

$$$$
>  <VARIANT_LABEL>
C82A A111U A120U A145U C169U U176A

>  <reverse-splicing fitness>
0.00289

$$$$
>  <VARIANT_LABEL>
C82U A111C A120C A145G C150G

>  <reverse-splicing fitness>
0.0102

$$$$
>  <VARIANT_LABEL>
C82U A111U A120G A145U C150U C169A U176C

>  <reverse-splicing fitness>
0.00959

$$$$
>  <VARIANT_LABEL>
C82A A111G A120G C150U U176A

>  <reverse-splicing fitness>
0.0108

$$$$
>  <VARIANT_LABEL>
C82A A111G A145C C169U U176A

>  <reverse-splicing fitness>
0.013

$$$$
>  <VARIANT_LABEL>
A111G A120G A145C C169G

>  <reverse-splicing fitness>
0.3

$$$$
>  <VARIANT_LABEL>
A111C U176A

>  <reverse-splicing fitness>
0.368

$$$$
>  <VARIANT_LABEL>
C82A A111C A145U C150A C169U U176G

>  <reverse-splicing fitness>
0.00853

$$$$
>  <VARIANT_LABEL>
C82U A120G C150G C169U U176A

>  <reverse-splicing fitness>
0.0125

$$$$
>  <VARIANT_LABEL>
A120U A145U C150A U176A

>  <reverse-splicing fitness>
0.151

$$$$
>  <VARIANT_LABEL>
C82U A111U A120C A145U C150U U176C

>  <reverse-splicing fitness>
0.0147

$$$$
>  <VARIANT_LABEL>
C82U A111U A120G C150A

>  <reverse-splicing fitness>
0.00947

$$$$
